Test system: EKVX NSCLC
Test: NCI tumour cell line growth inhibition, 48 h
Recorded endpoint: TGI

Answered cases to consult:
Asked: Notebook entry, EKVX NSCLC assay: TGI of Cc1c(NC(=O)C(C)(C)Br)c(=O)oc2c(C)c3occc(=O)c3cc12 = ?
Given back: > 100 µM

Asked: API: value(readout= TGI, system= EKVX NSCLC, query= CC/C(C)=C1\CCC(CN2CCOCC2)C1=O (stereo not given) )
Given back: 34 µM

Asked: // fetch EKVX NSCLC TGI for COC(=O)C1=C(O)C(C(=O)OC)[C@]2(O)[C@H](C(=O)OC)[C@H]1C[C@@H](c1ccc(F)cc1)[C@H]2C(=O)OC (stereo not given in full)
Given back: 41.3 µM

Asked: For the record CCC1(CC)C(=O)OC(=O)C1(CC)CC , what value of TGI is listed for EKVX NSCLC?
Given back: > 100 µM

Please turn your attention to the following entry.
Asked: Can you look up TGI on EKVX NSCLC for CCOC(=O)C(SCCO)C(C(=O)OCC)n1cnc2c(N)ncnc21 (stereo not given) ?
Given back: 38.1 µM
